Overview of reported yeast fitness across a group of variants:
B1: tRNA (parent)
chain: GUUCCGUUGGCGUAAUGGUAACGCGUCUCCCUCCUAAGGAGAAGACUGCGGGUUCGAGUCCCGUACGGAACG

# Variants of: B1
# TEST_DETAILS: yeast fitness relative to wild type (ratio to wild type); higher = fitter; tRNA-Arg(CCU), competitive growth, 37 C, YPD
Fewer inactive variants are shown than the library holds.

Worked cases, answers included:
MUTATION_LIST | yeast fitness
U16A C60A G67C | ≤ 0.5
G44A C46G | 0.928
C27A C55U C66A | ≤ 0.5
A15G G50C C60U | ≤ 0.5

For G51A C60G A65C the variant record lists yeast fitness as ≤ 0.5

The variant listed as A15G G17A C30A shows yeast fitness equal to 0.529

// yeast fitness value for C31A C34G : ≤ 0.5

Per the records, this variant ( U7C C34G G39C A42G C46G C61G ) has yeast fitness equal to 0.538

The value of yeast fitness measured for the variant U7A C34U C49A turned out to be ≤ 0.5

Reported yeast fitness of C4G A21G C27A G38C : ≤ 0.5

So, C11U U26A A36U A65U ? Its yeast fitness was ≤ 0.5
